Entry source: ChEMBL document CHEMBL3433997

Biological target: Hexose transporter 1 (Plasmodium falciparum)
Assay: ST_JUDE_LEISH: Cytotoxicity at 2uM final concentration against transgenic Leishmania Mexicana promastigotes LmPfHT that are glucose transport deficient and complemented with the Plasmodium falciparum hexose transporter. Activity is measured by DNA content using SYBR green in vitro
Assay type: functional
quantity.name: inhibition (%)
Field format: number, assumed %, no unit text.

Ask: Entry Cc1cccc2nc(-c3cccc(-c4cccc(NC(=O)c5ccc(=O)[nH]n5)c4)c3)[nH]c12 : reported inhibition = ?
Reply: 1.34

Ask: Entry CN1CCN(c2cc(-c3cccnc3)nc(-c3ccncc3)n2)CC1 : reported inhibition = ?
Reply: 5.65

Ask: Entry CCOc1ccc(C2CCN(CCCCNC(=O)c3ccc(NC(=O)c4ccc(Cl)cc4)cc3)CC2)c(CC)c1 : reported inhibition = ?
Reply: -0.09

Ask: Entry CNC(=O)/C=C/c1cc(NC(=O)Nc2ccnc3c(Br)cccc23)ccc1OC : reported inhibition = ?
Reply: 2.22

Ask: Entry CCOC(=O)c1c(C)n(-c2ccccc2)c2ccc(OC(=O)COc3ccc(Cl)cc3Cl)cc12 : reported inhibition = ?
Reply: 6.74

Ask: Entry COc1ccc(CCc2ccc(-c3c(C)[nH]c(C)c(Cl)c3=O)cc2)cc1OC : reported inhibition = ?
Reply: 11

Ask: Entry Cc1cccc(CNc2nc(C)cc(NCCC(=O)NCCOc3ccccc3)n2)c1 : reported inhibition = ?
Reply: 3.29

Ask: Entry Cc1onc(-c2ccccc2)c1-c1nc(NCCC(c2ccccc2)c2ccccc2)no1 : reported inhibition = ?
Reply: 9.89

Ask: Entry COc1ccc2[nH]cc(C3CCN(CCC4CCN(C(=O)/C=C/c5ccc(Cl)c(Cl)c5)CC4)CC3)c2c1 : reported inhibition = ?
Reply: 1.24

Ask: Entry Cc1nn(-c2ccccc2)c2sc(C(=O)N(CCCN(C)C)c3nc(-c4ccccc4)cs3)cc12 : reported inhibition = ?
Reply: 3.31

Ask: Entry CC1(C)N=C(N)N=C(N)N1OCc1cc(Cl)c(CON2C(N)=NC(N)=NC2(C)C)cc1Cl : reported inhibition = ?
Reply: 1

Ask: Entry Cc1ccccc1N1CCN(c2ccc(C(=O)Nc3ccccc3)cn2)CC1 : reported inhibition = ?
Reply: 7.8

Ask: Entry CN1CCN(CCCSc2ccc3c(c2)ncn3-c2cc(OCc3ccccc3C(F)(F)F)c(C(N)=O)s2)CC1 : reported inhibition = ?
Reply: 11.1

Ask: Entry CC(C)(CNC(=O)/C=C/c1ccc(Cl)c(Cl)c1)CNc1cc(=O)c2ccccc2[nH]1 : reported inhibition = ?
Reply: 0.05

Ask: Entry CC(=O)c1cccc2[nH]c(C(=O)NC3CCC(CCN4CCc5ccc(C#N)cc5C4)CC3)cc12 (centres undefined) : reported inhibition = ?
Reply: 4.09

Ask: Entry CC(C)c1ccc2[nH]c(C(=O)NC3CCC(N4CCCc5ccc(C#N)cc5C4)CC3)cc2c1 (centres undefined) : reported inhibition = ?
Reply: 0.9

Ask: Entry c1cncc(CNc2ncc(-c3ccsc3)c(-c3nccs3)n2)c1 : reported inhibition = ?
Reply: 8.95

Ask: Entry OC(CN1c2ccccc2Sc2ccccc21)CN(C1CCCCC1)C1CCCCC1 (centres undefined) : reported inhibition = ?
Reply: 6.38

Ask: Entry c1cncc(-c2cccc(CNc3nccc(Nc4ccc(OCCN5CCOCC5)cc4)n3)c2)c1 : reported inhibition = ?
Reply: 1
